Each recorded value in this set is attributed to paper PMC10319141.

experiment: Compound concentrations in organs and plasma after three consecutive daily s.c. treatments (Figure 6B, S7); assay type: in vivo, mice; details: mouse, brain, sc; after 4 h; repeated daily s.c. treatment; read-out: concentration in brain
Measured Metric: concentration at 4 h (nM)
One number for each entry, in nM.

Please supply the value of reported concentration at 4 h for the item CC(C)Cn1cnc2c(N)nc3ccccc3c21 [IMQ, Imiquimod]
32

====

Target: human TLR8 (Homo sapiens, UniProt Q9NR97)
Construct: host or cells: HEK blue hTLR8 reporter cells
Sequence (Q9NR97 27-1041): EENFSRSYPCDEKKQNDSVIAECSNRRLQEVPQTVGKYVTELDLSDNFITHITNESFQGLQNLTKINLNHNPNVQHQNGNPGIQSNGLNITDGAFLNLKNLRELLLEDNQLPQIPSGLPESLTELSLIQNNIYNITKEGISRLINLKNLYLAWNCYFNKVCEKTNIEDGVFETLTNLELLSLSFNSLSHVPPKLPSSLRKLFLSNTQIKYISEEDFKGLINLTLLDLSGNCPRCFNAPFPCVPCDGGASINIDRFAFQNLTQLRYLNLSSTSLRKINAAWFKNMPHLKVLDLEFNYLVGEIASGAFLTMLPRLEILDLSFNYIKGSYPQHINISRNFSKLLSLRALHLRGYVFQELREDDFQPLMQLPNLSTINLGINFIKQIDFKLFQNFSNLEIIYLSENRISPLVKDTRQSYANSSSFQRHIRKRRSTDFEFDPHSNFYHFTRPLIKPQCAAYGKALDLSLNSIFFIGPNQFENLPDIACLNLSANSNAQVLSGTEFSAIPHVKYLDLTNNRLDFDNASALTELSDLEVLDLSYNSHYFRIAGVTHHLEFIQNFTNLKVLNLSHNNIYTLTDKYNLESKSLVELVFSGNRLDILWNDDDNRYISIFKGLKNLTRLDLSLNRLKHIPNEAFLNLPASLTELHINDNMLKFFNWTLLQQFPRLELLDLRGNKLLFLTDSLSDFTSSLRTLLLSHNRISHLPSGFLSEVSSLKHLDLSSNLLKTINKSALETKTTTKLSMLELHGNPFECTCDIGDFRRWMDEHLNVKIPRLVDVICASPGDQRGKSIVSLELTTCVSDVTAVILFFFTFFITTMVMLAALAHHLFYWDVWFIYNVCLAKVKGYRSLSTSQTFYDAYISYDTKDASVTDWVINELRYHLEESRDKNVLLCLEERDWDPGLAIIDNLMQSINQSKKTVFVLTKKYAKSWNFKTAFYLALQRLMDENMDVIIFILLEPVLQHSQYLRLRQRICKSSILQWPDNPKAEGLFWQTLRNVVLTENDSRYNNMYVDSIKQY
Test: HEK-Blue hTLR8 SEAP reporter assay
Assay type: cell-based
Details: average maximal SEAP secretion relative to maximum secretion observed in the assay
Measured Metric: TLR8 activity rel. to assay max

The examples below pair each entry with its known result.
# Compound, Measured Metric, Result
records = [
    ("CCOCc1nc2c(N)nc3ccccc3c2n1CC(C)(C)O [RSQ, Resiquimod, reference compound]", "TLR8 activity rel. to assay max", "96% ± 4%"),
    ("CCCCc1nc2c(N)nc3ccccc3c2n1CC1CCN(C(=O)OC(C)(C)C)CC1", "TLR8 activity rel. to assay max", "4% ± 1%"),
]

Lab note: next compound to report on.
Report the value of TLR8 activity rel. to assay max obtained on human TLR8 (Homo sapiens, UniProt Q9NR97) for CCCCc1nc2c(N)nc3ccccc3c2n1CCC1CCN(C(=O)OC(C)(C)C)CC1 .
4% ± 2%
